Conditions: in acetone, 283.15 K
MEASURE_NAME: solubility (mole fraction)

-- ask Provide only the value of recorded solubility (mole fraction) for O=C(Nc1ccncc1)c1cc(C(=O)Nc2ccncc2)cc(C(=O)Nc2ccncc2)c1
-- reply 6.66e-06

---

Details: in n-propanol, 323.15 K
MEASURE_NAME: solubility (mole fraction)

-- ask // Input: O=C(Nc1ccncc1)c1cc(C(=O)Nc2ccncc2)cc(C(=O)Nc2ccncc2)c1 . Output its solubility (mole fraction) only.
-- reply 0.00029

---

Details: in ethyl acetate, 313.15 K
MEASURE_NAME: solubility (mole fraction)

-- ask Quick one: give measured solubility (mole fraction) for O=C(Nc1ccncc1)c1cc(C(=O)Nc2ccncc2)cc(C(=O)Nc2ccncc2)c1
-- reply 0.000178

---

Details: in methanol, 283.15 K
MEASURE_NAME: solubility (mole fraction)

-- ask For the compound O=C(Nc1ccncc1)c1cc(C(=O)Nc2ccncc2)cc(C(=O)Nc2ccncc2)c1 , report solubility (mole fraction).
-- reply 5.21e-05

---

Conditions: in ethyl acetate, 293.15 K
MEASURE_NAME: solubility (mole fraction)
# answer = number (no unit)

-- ask Item O=C(Nc1ccncc1)c1cc(C(=O)Nc2ccncc2)cc(C(=O)Nc2ccncc2)c1 : provide solubility (mole fraction)
-- reply 0.000137

---

Details: in n-butanol, 303.15 K
MEASURE_NAME: solubility (mole fraction)
Form rule: numeric answer, no unit written next to it.

-- ask Indicate its recorded solubility (mole fraction); the compound in question is O=C(Nc1ccncc1)c1cc(C(=O)Nc2ccncc2)cc(C(=O)Nc2ccncc2)c1
-- reply 0.000235

---

Conditions: in dichloromethane, 298.15 K
MEASURE_NAME: solubility (mole fraction)
Hey, just send me the number, nothing else.

-- ask Note solubility (mole fraction) for the compound shown: O=C(Nc1ccncc1)c1cc(C(=O)Nc2ccncc2)cc(C(=O)Nc2ccncc2)c1
-- reply 6e-05

---

Details: in acetonitrile, 303.15 K
MEASURE_NAME: solubility (mole fraction)
# answer = number (no unit)

-- ask Read off the recorded solubility (mole fraction) for O=C(Nc1ccncc1)c1cc(C(=O)Nc2ccncc2)cc(C(=O)Nc2ccncc2)c1
-- reply 0.00012

---

Details: in n-butanol, 323.15 K
MEASURE_NAME: solubility (mole fraction)

-- ask Name the recorded solubility (mole fraction) of the compound listed here: O=C(Nc1ccncc1)c1cc(C(=O)Nc2ccncc2)cc(C(=O)Nc2ccncc2)c1
-- reply 0.000371

---

Conditions: in dichloromethane, 303.15 K
MEASURE_NAME: solubility (mole fraction)
The answer should be written as a number, with no unit following it.

-- ask Hello, please tell me recorded solubility (mole fraction) for this one: O=C(Nc1ccncc1)c1cc(C(=O)Nc2ccncc2)cc(C(=O)Nc2ccncc2)c1
-- reply 6.77e-05

---

Conditions: in ethyl acetate, 323.15 K
MEASURE_NAME: solubility (mole fraction)
No unit in the answer, only the number.

-- ask For the compound O=C(Nc1ccncc1)c1cc(C(=O)Nc2ccncc2)cc(C(=O)Nc2ccncc2)c1 , report solubility (mole fraction).
-- reply 0.000196

---

Settings: in isopropanol, 313.15 K
MEASURE_NAME: solubility (mole fraction)
Give the value as a plain number.

-- ask Please look at this compound and report its solubility (mole fraction): O=C(Nc1ccncc1)c1cc(C(=O)Nc2ccncc2)cc(C(=O)Nc2ccncc2)c1
-- reply 0.000405

---

Details: in 2-butanone, 283.15 K
MEASURE_NAME: solubility (mole fraction)
Hey, just send me the number, nothing else.

-- ask Give solubility (mole fraction) for the following compound: O=C(Nc1ccncc1)c1cc(C(=O)Nc2ccncc2)cc(C(=O)Nc2ccncc2)c1
-- reply 0.00034

---

Details: in methanol, 313.15 K
MEASURE_NAME: solubility (mole fraction)
Format: numeric value only, no unit, no commentary.

-- ask Indicate the recorded solubility (mole fraction) value for this compound: O=C(Nc1ccncc1)c1cc(C(=O)Nc2ccncc2)cc(C(=O)Nc2ccncc2)c1
-- reply 0.00013

---

Settings: in n-hexane, 323.15 K
MEASURE_NAME: solubility (mole fraction)
No unit in the answer, please; the number alone is enough.

-- ask Consider the compound O=C(Nc1ccncc1)c1cc(C(=O)Nc2ccncc2)cc(C(=O)Nc2ccncc2)c1 and give its recorded solubility (mole fraction).
-- reply 6.95e-05

---

Settings: in isopropanol, 303.15 K
MEASURE_NAME: solubility (mole fraction)

-- ask Report solubility (mole fraction), nothing else, for this compound: O=C(Nc1ccncc1)c1cc(C(=O)Nc2ccncc2)cc(C(=O)Nc2ccncc2)c1
-- reply 0.000355

---

Conditions: in n-propanol, 293.15 K
MEASURE_NAME: solubility (mole fraction)

-- ask Complete the entry with solubility (mole fraction) for O=C(Nc1ccncc1)c1cc(C(=O)Nc2ccncc2)cc(C(=O)Nc2ccncc2)c1
-- reply 0.000244

---

Conditions: in n-butanol, 283.15 K
MEASURE_NAME: solubility (mole fraction)
// return just the number, without any unit appended

-- ask Entry O=C(Nc1ccncc1)c1cc(C(=O)Nc2ccncc2)cc(C(=O)Nc2ccncc2)c1 needs its solubility (mole fraction) filled in; supply it.
-- reply 0.000156

---

Details: in n-propanol, 283.15 K
MEASURE_NAME: solubility (mole fraction)

-- ask Quote solubility (mole fraction) reported for O=C(Nc1ccncc1)c1cc(C(=O)Nc2ccncc2)cc(C(=O)Nc2ccncc2)c1 please.
-- reply 0.000217

---

Conditions: in acetone, 293.15 K
MEASURE_NAME: solubility (mole fraction)

-- ask Give me measured solubility (mole fraction), please, for this compound: O=C(Nc1ccncc1)c1cc(C(=O)Nc2ccncc2)cc(C(=O)Nc2ccncc2)c1
-- reply 1.54e-05

---

Details: in dichloromethane, 288.15 K
MEASURE_NAME: solubility (mole fraction)
Could you keep your reply to the number by itself?

-- ask Look up and state reported solubility (mole fraction) for O=C(Nc1ccncc1)c1cc(C(=O)Nc2ccncc2)cc(C(=O)Nc2ccncc2)c1
-- reply 4.23e-05

---

Details: in methanol, 323.15 K
MEASURE_NAME: solubility (mole fraction)
Write the value as a bare number.

-- ask Please report solubility (mole fraction) for the following compound: O=C(Nc1ccncc1)c1cc(C(=O)Nc2ccncc2)cc(C(=O)Nc2ccncc2)c1
-- reply 0.000163

---

Settings: in ethanol, 303.15 K
MEASURE_NAME: solubility (mole fraction)

-- ask Quickly give me recorded solubility (mole fraction) for O=C(Nc1ccncc1)c1cc(C(=O)Nc2ccncc2)cc(C(=O)Nc2ccncc2)c1
-- reply 7.59e-05

---

Conditions: in n-butanol, 293.15 K
MEASURE_NAME: solubility (mole fraction)
Quick one: just the number, no unit, thanks!

-- ask Identify measured solubility (mole fraction) associated with O=C(Nc1ccncc1)c1cc(C(=O)Nc2ccncc2)cc(C(=O)Nc2ccncc2)c1
-- reply 0.0002

---

Settings: in 2-butanone, 323.15 K
MEASURE_NAME: solubility (mole fraction)

-- ask Retrieve solubility (mole fraction) measured for O=C(Nc1ccncc1)c1cc(C(=O)Nc2ccncc2)cc(C(=O)Nc2ccncc2)c1 and print it.
-- reply 0.000675

---

Conditions: in acetonitrile, 323.15 K
MEASURE_NAME: solubility (mole fraction)
API note: the answer field is a bare number with no unit suffix.

-- ask Identify solubility (mole fraction) associated with the compound O=C(Nc1ccncc1)c1cc(C(=O)Nc2ccncc2)cc(C(=O)Nc2ccncc2)c1
-- reply 0.000183

---

Details: in water, 313.15 K
MEASURE_NAME: solubility (mole fraction)
Field format: numeric only.

-- ask Determine its reported solubility (mole fraction): O=C(Nc1ccncc1)c1cc(C(=O)Nc2ccncc2)cc(C(=O)Nc2ccncc2)c1
-- reply 8.34e-06

---

Conditions: in ethanol, 293.15 K
MEASURE_NAME: solubility (mole fraction)
Returns: the value as a bare number; no unit string appended.

-- ask Please give measured solubility (mole fraction) of the following entry: O=C(Nc1ccncc1)c1cc(C(=O)Nc2ccncc2)cc(C(=O)Nc2ccncc2)c1
-- reply 6.07e-05

---

Details: in acetonitrile, 283.15 K
MEASURE_NAME: solubility (mole fraction)
Please give only the number in your answer, with no unit.

-- ask Identify measured solubility (mole fraction) corresponding to O=C(Nc1ccncc1)c1cc(C(=O)Nc2ccncc2)cc(C(=O)Nc2ccncc2)c1
-- reply 7.35e-05

---

Conditions: in water, 293.15 K
MEASURE_NAME: solubility (mole fraction)
Please reply with the number alone, leaving off any unit.

-- ask Give a short answer stating reported solubility (mole fraction) for O=C(Nc1ccncc1)c1cc(C(=O)Nc2ccncc2)cc(C(=O)Nc2ccncc2)c1 .
-- reply 5.71e-06

---

Settings: in acetone, 303.15 K
MEASURE_NAME: solubility (mole fraction)
Respond numerically, and do not add a unit to the figure.

-- ask Please give measured solubility (mole fraction) of the following entry: O=C(Nc1ccncc1)c1cc(C(=O)Nc2ccncc2)cc(C(=O)Nc2ccncc2)c1
-- reply 1.86e-05

---

Conditions: in dichloromethane, 283.15 K
MEASURE_NAME: solubility (mole fraction)
Form field (numeric): enter value without unit.

-- ask Look up solubility (mole fraction) of O=C(Nc1ccncc1)c1cc(C(=O)Nc2ccncc2)cc(C(=O)Nc2ccncc2)c1 and report it.
-- reply 3.08e-05
